Listed molecules paired with reported pEC50
molecular target: FSHR (Homo sapiens); assay: EC50 of cyclic AMP production in CHO FSHR cells + EC20 FSH (Assay A); settings: cyclic AMP production in CHO FSHR cells + EC20 FSH (0.265 pM), HTRF
Sequence (P23945 18-695): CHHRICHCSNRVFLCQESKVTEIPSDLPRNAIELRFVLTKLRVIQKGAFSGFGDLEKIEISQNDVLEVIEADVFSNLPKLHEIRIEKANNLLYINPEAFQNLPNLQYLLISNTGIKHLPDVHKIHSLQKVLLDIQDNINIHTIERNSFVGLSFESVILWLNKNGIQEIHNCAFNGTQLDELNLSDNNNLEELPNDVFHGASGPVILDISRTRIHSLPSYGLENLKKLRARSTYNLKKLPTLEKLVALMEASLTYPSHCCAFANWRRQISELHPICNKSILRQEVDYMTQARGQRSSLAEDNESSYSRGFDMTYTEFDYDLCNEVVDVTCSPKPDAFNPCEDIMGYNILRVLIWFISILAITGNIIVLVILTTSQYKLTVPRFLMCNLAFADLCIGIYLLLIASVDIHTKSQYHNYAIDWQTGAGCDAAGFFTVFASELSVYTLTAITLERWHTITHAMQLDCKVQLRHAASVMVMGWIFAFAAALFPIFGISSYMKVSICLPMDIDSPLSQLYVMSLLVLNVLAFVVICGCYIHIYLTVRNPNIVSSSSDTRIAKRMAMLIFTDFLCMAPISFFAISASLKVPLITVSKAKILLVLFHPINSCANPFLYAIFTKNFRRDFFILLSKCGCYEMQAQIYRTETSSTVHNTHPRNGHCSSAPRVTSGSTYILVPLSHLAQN
pEC50: −log10 of the molar value.

In the examples that follow, each entry is paired with its recorded pEC50.
MOLECULE	MEASURED_RESULT
COc1cc2c(cc1-c1ccn(C)n1)-c1c(c(C(=O)N3CC[S+]([O-])CC3(C)C)nn1-c1ccsc1)CO2 (stereo not shown)	7.00 to 8.00
COc1cc(F)cc(-n2nc(C(=O)N(C)C(C)(C)C)c3c2-c2cc(-c4cncc(C#N)c4)c(OC)cc2OC3)c1	> 8.00
COc1cc2c(cc1-c1cnn(CC(O)CO)c1)-c1c(c(C(=O)N(C)C(C)(C)C)nn1-c1cc(Cl)cc(Cl)c1)CO2 (stereo not shown) [Compound 190]	7.00 to 8.00
COc1cc(Cl)cc(-n2nc(C(=O)N3CCOCC3(C)C)c3c2-c2cc(-c4ccn(C)n4)c(OC)cc2OC3)c1	> 8.00

input: Look up pEC50 for this molecule: COc1cc2c(cc1CC(C)C)-c1c(c(C(=O)N(C)C(C)(C)C#N)nn1-c1ccsc1)CO2
output: > 8.00

input: Similarly, COc1cc(Cl)cc(-n2nc(C(=O)N(C)C(C)(C)C)c3c2-c2cc(-c4cnn(CC(=O)O)c4)c(OC)cc2OC3)c1 ?
output: 7.00 to 8.00

input: Similarly, COc1cc2c(cc1-c1cccnc1F)-c1c(c(C(=O)N3CCOCC3(C)C)nn1-c1ccsc1)CO2 ?
output: > 8.00

###

biological target: follicle-stimulating hormone (FSH) receptor (Rattus norvegicus, UniProt P20395); construct: endogenous in cells; assay: Rat granulosa EC50 FSH (Assay B)
pEC50: −log10 of the molar value.
Listed compounds paired with reported pEC50

In the examples that follow, each entry is paired with its recorded pEC50.
1) COc1cc2c(cc1-c1ccn(C)n1)-c1c(c(C(=O)N(C)C(C)(C)C)nn1-c1cc(C)cc(Cl)c1)CO2 6.30 to 7.00
2) COc1cc2c(cc1-c1c[nH]nn1)-c1c(c(C(=O)N(C)C(C)(C)C)nn1-c1ccsc1)CO2 < 6.30
3) COc1cc(Cl)cc(-n2nc(C(=O)N(C)C(C)(C)C)c3c2-c2cc(-c4cnn(CC(=O)O)c4)c(OC)cc2OC3)c1 < 6.30

input: Look up pEC50 for this compound: COc1cc(Cl)cc(-n2nc(C(=O)N(C)C(C)(C)C)c3c2-c2cc(-c4cnn(CCO)c4)c(OC)cc2OC3)c1
output: 6.30 to 7.00

input: Similarly, COc1cc(F)cc(-n2nc(C(=O)N3CCOCC3(C)C)c3c2-c2cc(-c4cnn(CC(=O)O)c4)c(OC)cc2OC3)c1 ?
output: 6.30 to 7.00

input: Similarly, COc1cc2c(cc1-c1ccn(C)n1)-c1c(c(C(=O)N(C)C(C)(C)C#N)nn1-c1cc(Cl)cc(Cl)c1)CO2 ?
output: 6.30 to 7.00

input: Similarly, COc1cc2c(cc1-c1cncc(C#N)c1)-c1c(c(C(=O)N(C)C(C)(C)C)nn1-c1cc(Cl)cc(Cl)c1)CO2 ?
output: 6.30 to 7.00

###

Target: follicle-stimulating hormone (FSH) receptor (Rattus norvegicus)
Construct: endogenous in cells
Sequence (P20395 18-692): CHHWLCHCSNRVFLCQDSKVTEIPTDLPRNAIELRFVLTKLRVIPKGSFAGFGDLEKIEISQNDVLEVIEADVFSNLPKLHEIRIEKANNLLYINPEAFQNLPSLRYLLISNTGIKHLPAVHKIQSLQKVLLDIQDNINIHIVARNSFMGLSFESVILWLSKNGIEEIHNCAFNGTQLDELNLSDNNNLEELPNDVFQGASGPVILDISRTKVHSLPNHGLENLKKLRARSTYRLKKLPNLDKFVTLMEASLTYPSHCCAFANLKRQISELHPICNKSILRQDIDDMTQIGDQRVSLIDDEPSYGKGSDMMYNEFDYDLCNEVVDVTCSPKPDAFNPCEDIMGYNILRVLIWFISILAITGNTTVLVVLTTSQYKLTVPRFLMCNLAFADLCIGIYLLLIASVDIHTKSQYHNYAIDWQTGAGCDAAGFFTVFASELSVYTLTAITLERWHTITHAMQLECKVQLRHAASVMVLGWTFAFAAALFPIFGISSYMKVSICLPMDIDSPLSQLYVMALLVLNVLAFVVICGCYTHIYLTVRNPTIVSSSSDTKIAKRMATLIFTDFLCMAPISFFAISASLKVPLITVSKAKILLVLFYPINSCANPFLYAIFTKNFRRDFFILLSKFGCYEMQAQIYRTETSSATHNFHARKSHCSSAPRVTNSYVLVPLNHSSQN
Experiment: Rat granulosa EC50 FSH (Assay B)
READOUT_NAME: EC50

1) COc1cc2c(cc1-c1nccnc1C#N)-c1c(c(C(=O)N(C)C(C)(C)C)nn1-c1cc(Cl)cc(Cl)c1)CO2 101 to 500 nM
2) COc1cc2c(cc1-c1cncc(C(N)=O)c1)-c1c(c(C(=O)N(C)C(C)(C)C)nn1-c1cc(C)cc(F)c1)CO2 10 to 100 nM
3) COc1cc(OC)cc(-n2nc(C(=O)N(C)C(C)(C)CCO)c3c2-c2cc(-c4ccn(C)n4)c(OC)cc2OC3)c1 > 500 nM
4) [2H]C([2H])([2H])Oc1cc(Cl)cc(-n2nc(C(=O)N(C)C(C)(C)C)c3c2-c2cc(-c4cncc(C(N)=O)c4)c(OC([2H])([2H])[2H])cc2OC3)c1 10 to 100 nM
5) COc1cc(F)cc(-n2nc(C(=O)N(C)C(C)(C)C)c3c2-c2cc(-c4ccn(C)n4)c(OC)cc2OC3)c1 101 to 500 nM

input: Look up EC50 for this compound: COc1cc(OC)cc(-n2nc(C(=O)N(C)C(C)(C)C)c3c2-c2cc(-c4nn(C)cc4C#N)c(OC)cc2OC3)c1
output: 101 to 500 nM

input: Similarly, COc1cc2c(cc1-c1ccccc1F)-c1c(c(C(=O)N(C)C(C)(C)C)nn1-c1ccsc1)CO2 ?
output: 101 to 500 nM

###

Listed molecules paired with reported EC50
Target: follicle-stimulating hormone (FSH) receptor (Rattus norvegicus)
Construct: endogenous in cells
Sequence (P20395 18-692): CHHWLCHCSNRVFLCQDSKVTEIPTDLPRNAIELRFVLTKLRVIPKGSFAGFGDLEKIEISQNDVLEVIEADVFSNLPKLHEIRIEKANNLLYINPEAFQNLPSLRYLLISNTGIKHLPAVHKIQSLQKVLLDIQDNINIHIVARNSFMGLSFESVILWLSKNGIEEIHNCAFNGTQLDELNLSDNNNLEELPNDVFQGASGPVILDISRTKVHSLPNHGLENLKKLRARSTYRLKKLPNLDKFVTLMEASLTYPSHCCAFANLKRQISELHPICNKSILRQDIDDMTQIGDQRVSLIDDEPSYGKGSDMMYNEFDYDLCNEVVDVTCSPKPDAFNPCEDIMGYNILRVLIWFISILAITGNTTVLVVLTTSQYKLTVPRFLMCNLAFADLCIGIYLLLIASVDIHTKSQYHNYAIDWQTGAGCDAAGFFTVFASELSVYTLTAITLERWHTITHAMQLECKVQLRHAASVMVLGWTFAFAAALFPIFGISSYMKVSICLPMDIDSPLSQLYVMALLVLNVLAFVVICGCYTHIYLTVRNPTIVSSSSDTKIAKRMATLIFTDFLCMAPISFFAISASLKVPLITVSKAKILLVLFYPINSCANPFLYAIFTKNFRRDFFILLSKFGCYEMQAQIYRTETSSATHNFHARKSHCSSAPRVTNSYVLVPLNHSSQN
Experiment: Rat granulosa EC50 FSH (Assay B)

In the examples that follow, each entry is paired with its recorded EC50.
MOLECULE	MEASURED_RESULT
COc1cc2c(cc1-c1cncc(NC(C)=O)c1)-c1c(c(C(=O)N(C)C(C)(C)C)nn1-c1cc(Cl)cc(Cl)c1)CO2 [Compound 182]	< 10 nM
COc1cc2c(cc1-c1cnn(CC(=O)N(C)C)c1)-c1c(c(C(=O)N(C)C(C)(C)C)nn1-c1cc(Cl)cc(Cl)c1)CO2 [Compound 90]	101 to 500 nM
CCOC(=O)C1CC1c1cc2c(cc1OC)OCc1c(C(=O)N(C)C(C)(C)C)nn(-c3cc(Cl)cc(Cl)c3)c1-2 (stereo not shown) [Compound 196]	101 to 500 nM
COc1cc2c(cc1-c1cc(C(N)=O)ncc1F)-c1c(c(C(=O)N3CCOCC3(C)C)nn1-c1cc(F)cc(F)c1)CO2 [Compound 72]	10 to 100 nM
COc1cc2c(cc1-c1cncc(C(N)=O)c1)-c1c(c(C(=O)N(C)C(C)(C)C)nn1-c1cc(Cl)cc(Cl)c1)CO2 [Compound 171]	< 10 nM
COc1cc2c(cc1-c1ccn(C)n1)-c1c(c(C(=O)N3CCOCC3(C)C)nn1-c1cc(F)cc(Cl)c1)CO2 [Compound 29]	101 to 500 nM

input: Look up EC50 for this molecule: COc1cc2c(cc1-c1cccc(CO)c1F)-c1c(c(C(=O)N(C)C(C)(C)C)nn1-c1cc(Cl)cc(Cl)c1)CO2 [Compound 195]
output: 10 to 100 nM

input: Similarly, COc1cc2c(cc1-c1cc(Cl)cc(C(N)=O)c1)-c1c(c(C(=O)N(C)C(C)(C)C)nn1-c1cc(F)cc(F)c1)CO2 [Compound 165] ?
output: 10 to 100 nM

input: Similarly, COc1cc2c(cc1-c1ccn(C)n1)-c1c(c(C(=O)N(C)C(C)(C)C)nn1-c1cc(F)cc(F)c1)CO2 [Compound 48] ?
output: 101 to 500 nM

input: Similarly, COc1cc(F)cc(-n2nc(C(=O)N(C)C(C)(C)C)c3c2-c2cc(-c4cncc(C(N)=O)c4)c(OC)cc2OC3)c1 [Compound 166] ?
output: 101 to 500 nM

input: Similarly, COc1cc(OC)cc(-n2nc(C(=O)N3CC[S+]([O-])CC3(C)C)c3c2-c2cc(-c4cccnc4F)c(OC)cc2OC3)c1 (stereo not shown) [Compound 40] ?
output: 10 to 100 nM

input: Similarly, COc1cc2c(cc1-c1cncc(N)c1)-c1c(c(C(=O)N(C)C(C)(C)C)nn1-c1cc(Cl)cc(Cl)c1)CO2 [Compound 20] ?
output: 101 to 500 nM

input: Similarly, COc1cc2c(cc1-c1cnn(CCO)c1)-c1c(c(C(=O)N(C)C(C)(C)C)nn1-c1ccsc1)CO2 [Compound 76] ?
output: > 500 nM
